B1: SPDEF (parent)
chain: YPEDSSWAAKAPGASSREEPPEEP

Variants of: B1
Assay Method Text: protein stability index of a GFP-peptide fusion (GPS, HEK-293T) (PSI 1-6); higher = more stable;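 also: lentivirally expressed fusions sorted by FACS into six bins by GFP to DsRed ratio, PSI derived from sequencing read proportions per bin multiplied by bin number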
Test Context: c terminus: a fixed tail appended
Cut-off 4 on protein stability index, inclusive. At or above means T; below means F.

- Residue Codes: "YPEDSSWAAKAPGWSSREEPPEEP"
  Class Assignment: "F"
- Residue Codes: "YPEDSSWAAKAPGASSREEPHEEP"
  Class Assignment: "T"
- Residue Codes: "YPEDSSWAAKAPGISSREEPPEEP"
  Class Assignment: "T"
- Residue Codes: "FPEDSSWAAKAPGASSREEPPEEP"
  Class Assignment: "F"
- Residue Codes: "YPEDSSWAAKAPGASQREEPPEEP"
  Class Assignment: "F"
- Residue Codes: "YPEDSSWAAKAPGASPREEPPEEP"
  Class Assignment: "F"
- Residue Codes: "YMEDSSWAAKAPGASSREEPPEEP"
  Class Assignment: "T"
- Residue Codes: "YPEDSSWATKAPGASSREEPPEEP"
  Class Assignment: "T"
- Residue Codes: "YPEQSSWAAKAPGASSREEPPEEP"
  Class Assignment: "F"
- Residue Codes: "YPEDSSWAAKAFGASSREEPPEEP"
  Class Assignment: "F"
- Residue Codes: "YPEDSSWAAKAPGHSSREEPPEEP"
  Class Assignment: "F"
